system: NB-4; test: Antiproliferative activity against human NB-4 cells assessed as reduction in cell viability measured after 72 hrs by CellTiterGlo luminescent assay; type: functional, cell-based; conditions: NB-4, 72 h

structure smiles string: CCN1CCN(c2ccc(C(=O)Nc3cc(-c4ccc5ncn(Cc6c(Cl)cccc6Cl)c5c4)[nH]n3)cc2)CC1
IC50: > 5 µM

* * *

assay: AUC (0 to t) in Sprague-Dawley rat at 10 mg/kg, po measured for 24 hrs by LC-MS/MS analysis; format: ADME, organism-based; set-up: time 24 hrs, dose 10 mg/kg, route po; conditions: in vivo
assay readout: AUC(0-t) at 24 h (ng·h/mL)

structure smiles string: CCN1CCN(c2ccc(C(=O)Nc3cc(-c4ccc5ncn(Cc6c(Cl)cccc6Cl)c5c4)[nH]n3)cc2)CC1
assay readout: AUC(0-t) at 24 h
units: ng·h/mL
result: 50.9

Origin of the recorded values: ChEMBL document CHEMBL5226341
